target: T1, recombinant Plasmodium falciparum circumsporozoite protein (CSP) (Plasmodium falciparum, UniProt Q7K740 21-375); experiment: binding affinity column of the in vivo table (SPR, CSP)
T1 construct: also called recombinant CSP
T1 sequence (Q7K740 21-375 limits assumed): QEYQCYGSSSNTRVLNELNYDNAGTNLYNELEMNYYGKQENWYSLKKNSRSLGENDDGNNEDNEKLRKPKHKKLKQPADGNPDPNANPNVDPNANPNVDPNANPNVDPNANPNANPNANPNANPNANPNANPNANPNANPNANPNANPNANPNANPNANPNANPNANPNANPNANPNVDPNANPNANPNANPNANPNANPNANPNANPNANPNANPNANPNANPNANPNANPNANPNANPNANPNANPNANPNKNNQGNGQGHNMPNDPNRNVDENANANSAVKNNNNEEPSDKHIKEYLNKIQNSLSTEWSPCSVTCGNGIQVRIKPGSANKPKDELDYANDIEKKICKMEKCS
Assay readout: Kd (pM)
Numbers only; they are read as pM.

Worked cases, Kd given:
AB001480 (antibody, V domains shown) VH: QVQLVESGGGVVQPGRSLRLSCAASGFTFSFYGMHWVRQAPGKGLEWVAVIWYDGSNKYYADSVRGRFTISRDNSKNTLYLQMNSLRAEDTAVYYCARVGNDYDDHGSALDMWGQGTMVTVSS VL: DIQMTQSPSTLSASVGDRVTITCRASQSISSWLAWYQQKPGKAPKLLIYRASSLESGVPPRFSGSGSGTEFTLTISSLQPDDFGIYYCQQYNSRWTFGQGTKVEIK = 1180
AB-000338 LS (antibody, V domains shown) VH: QVQLVESGGGVVQPGRSLRLSCAASGFSFSTYGMHWIRQVPGKGLEWVAIIWHDGSKEFYADSVKGRFTISRDNSKKKLYLQMNSLRAEDTAIYYCVKDDFDSSGHSYFHYWGQGTLVTVSS VL: GVVMTQSPLSLPVTLGQPASISCRSSQSLVHSDGNTYVHWFQQRPGQSPRRLIYKVSNRDSGVPDRFSGSGSGTDFTLKISRVEAEDVGVYYCMQGTQWWTFGQGTKVEIK = 130

Q) Tell us which Kd value is on record for AB-000222 (antibody, V domains shown) VH: QVQLVESGGGVVQPGRSLRLSCAASGFTFSNFGMHWVRQAPGKGLEWVAVIWYDGSKKYYADFVKGRFTISRDNSKYMLYLQMTSLGAEDTAIYYCARDIRGAYRVTDGGFDYWGQGALVTVSS VL: QFVLTQPPSVSGAPGQRVTISCTGSSFNIGAGYDVHWYQQLPEKAPKLLIYGSTNRASEVPDRFSGSKSGTSASLAITGLQPEDEADYYCQSYDSSLSGYVFGTGTKVTVL
A) 152

meta.source: patent US20250296995A1
